All values here come from ChEMBL document CHEMBL1909046.

biological target: Neuropeptide Y receptor type 2 (Homo sapiens); type: cell membranes, Membrane; conditions: kan-ts; further: in other assays of this panel Not Active means under 50% inhibition at 10 µM
Sequence (P49146 whole entry): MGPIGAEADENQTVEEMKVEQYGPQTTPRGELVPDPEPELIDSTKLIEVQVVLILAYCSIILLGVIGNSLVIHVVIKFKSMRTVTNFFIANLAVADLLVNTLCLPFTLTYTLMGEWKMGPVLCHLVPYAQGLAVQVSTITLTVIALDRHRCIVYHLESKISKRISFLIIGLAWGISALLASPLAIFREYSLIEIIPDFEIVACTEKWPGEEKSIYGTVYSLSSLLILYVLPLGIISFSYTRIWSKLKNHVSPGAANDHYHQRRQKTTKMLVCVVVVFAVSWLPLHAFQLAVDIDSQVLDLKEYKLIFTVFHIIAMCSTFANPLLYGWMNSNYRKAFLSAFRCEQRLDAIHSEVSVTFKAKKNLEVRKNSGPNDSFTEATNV

MOLECULE: CC(C)Cc1ccc(C(C)C(=O)O)cc1 (stereo not given)
IC50: Not Active
//
MOLECULE: COCCOC(=O)C1=C(C)NC(C)=C(C(=O)OC(C)C)C1c1cccc([N+](=O)[O-])c1 (stereo not given)
IC50: Not Active
//
MOLECULE: COc1cccc2c1C(=O)c1c(O)c3c(c(O)c1C2=O)C[C@@](O)(C(=O)CO)C[C@@H]3O[C@H]1C[C@H](N)[C@@H](O)[C@H](C)O1 [EPIRUBICIN]
IC50: Not Active
//
MOLECULE: CC(C(=O)O)c1cccc(C(=O)c2ccccc2)c1 (stereo not given)
IC50: Not Active
//
MOLECULE: S=C=Nc1cccc2ccccc12 [1-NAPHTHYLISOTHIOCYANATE]
IC50: Not Active

---

test: DRUGMATRIX: Serotonin (5-Hydroxytryptamine) 5-HT3 radioligand binding (ligand: [3H] GR-65630); assay type: cell membranes, Membrane; conditions: hek293; Not Active = under 50% inhibition at 10 µM; read-out: Ki
MEASURED_PARAMETER: Ki (nM)

COMPOUND: CN1C(=O)COc2c(C(=O)NC3CN4CCC3CC4)cc(Cl)cc21 (configuration not stated)
UOM: nM
OBSERVED_RESULT: 2.89
//
COMPOUND: Cc1nccn1CC1CCc2c(c3ccccc3n2C)C1=O (configuration not stated)
UOM: nM
OBSERVED_RESULT: 2.09

---

biological target: UniProt Q9Y271; format: cell membranes, CHO-K1, Membrane; conditions: cho-k1
Sequence (Q9Y271 whole entry): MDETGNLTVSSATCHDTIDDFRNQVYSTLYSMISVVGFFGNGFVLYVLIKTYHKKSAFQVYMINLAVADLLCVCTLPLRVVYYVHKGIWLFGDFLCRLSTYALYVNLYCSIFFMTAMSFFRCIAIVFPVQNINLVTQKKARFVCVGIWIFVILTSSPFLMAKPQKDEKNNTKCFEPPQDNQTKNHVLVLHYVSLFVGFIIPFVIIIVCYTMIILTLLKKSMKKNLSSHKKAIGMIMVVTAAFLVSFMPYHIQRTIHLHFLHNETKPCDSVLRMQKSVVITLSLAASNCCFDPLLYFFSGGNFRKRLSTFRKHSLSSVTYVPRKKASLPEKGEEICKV
MEASURED_PARAMETER: IC50

COMPOUND: C#C[C@]1(OC(C)=O)CC[C@H]2[C@@H]3CCC4=CC(=O)CC[C@@H]4[C@H]3CC[C@@]21C [NORETHINDRONE ACETATE]
OBSERVED_RESULT: Not Active
//
COMPOUND: OC(CCN1CCCCC1)(c1ccccc1)C1CCCCC1 (configuration not stated) [TRIHEXYPHENIDYL]
OBSERVED_RESULT: Not Active
//
COMPOUND: COc1cc2c(c3oc(=O)c4c(c13)CCC4=O)[C@@H]1C=CO[C@@H]1O2 [AFLATOXIN]
OBSERVED_RESULT: Not Active
//
COMPOUND: O=C1CC[C@H](N2C(=O)c3ccccc3C2=O)C(=O)N1
OBSERVED_RESULT: Not Active
//
COMPOUND: CCN1CC(CCN2CCOCC2)C(c2ccccc2)(c2ccccc2)C1=O (configuration not stated) [DOXAPRAM]
OBSERVED_RESULT: Not Active
//
COMPOUND: CC1(C)O[C@@H]2C[C@H]3[C@@H]4C[C@H](F)C5=CC(=O)C=C[C@]5(C)[C@@]4(F)[C@@H](O)C[C@]3(C)[C@]2(C(=O)CO)O1 [FLUOCINOLONE ACETONIDE]
OBSERVED_RESULT: Not Active
//
COMPOUND: C=C1CC[C@H](O)C/C1=C/C=C1\CCC[C@]2(C)[C@@H]([C@H](C)CCCC(C)C)CC[C@@H]12 [CHOLECALCIFEROL]
OBSERVED_RESULT: Not Active

---

target: Leukotriene C4 synthase (Cavia porcellus, UniProt A6XA80); assay type: tissue-based, Lung;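 further: enzyme inhibition assay of leukotriene C4 synthase, using LTA4 as the substrate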; further: in other assays of this panel Not Active means under 50% inhibition at 10 µM
Sequence (A6XA80 whole entry): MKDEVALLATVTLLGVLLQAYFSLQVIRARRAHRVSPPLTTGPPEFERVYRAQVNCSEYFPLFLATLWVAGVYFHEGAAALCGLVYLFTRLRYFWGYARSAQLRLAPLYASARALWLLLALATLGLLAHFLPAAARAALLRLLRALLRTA
MEASURED_PARAMETER: IC50

COMPOUND: C#C[C@]1(OC(C)=O)CC[C@H]2[C@@H]3CCC4=CC(=O)CC[C@@H]4[C@H]3CC[C@@]21C [NORETHINDRONE ACETATE]
MEASURED_PARAMETER: IC50
OBSERVED_RESULT: Not Active
//
COMPOUND: CC(C)CC(N(C)C)C1(c2ccc(Cl)cc2)CCC1 (stereo not drawn)
MEASURED_PARAMETER: IC50
OBSERVED_RESULT: Not Active
//
COMPOUND: CCOC(=O)C(C)(C)Oc1ccc(Cl)cc1 [CLOFIBRATE]
MEASURED_PARAMETER: IC50
OBSERVED_RESULT: Not Active
//
COMPOUND: [H]/N=C(/N)N[C@H]1[C@H](O)[C@@H](O)[C@H](O[C@@H]2O[C@@H](C)[C@](O)(C=O)[C@H]2O[C@@H]2O[C@@H](CO)[C@H](O)[C@@H](O)[C@@H]2NC)[C@@H](N/C(N)=N\[H])[C@@H]1O
MEASURED_PARAMETER: IC50
OBSERVED_RESULT: Not Active
//
COMPOUND: O=C(O)Cc1ccccc1Nc1c(Cl)cccc1Cl
MEASURED_PARAMETER: IC50
OBSERVED_RESULT: Not Active
//
COMPOUND: Cc1cc(C)nc(NS(=O)(=O)c2ccc(N)cc2)n1
MEASURED_PARAMETER: IC50
OBSERVED_RESULT: Not Active
//
COMPOUND: Cc1ccccc1C(=O)N1CCC(Cc2ccccc2)CC1
MEASURED_PARAMETER: IC50
OBSERVED_RESULT: Not Active
//
COMPOUND: CN1CCC(=C2c3ccccc3C=Cc3ccccc32)CC1
MEASURED_PARAMETER: IC50
OBSERVED_RESULT: Not Active

---

Target: Muscarinic acetylcholine receptor M2 (Homo sapiens); further: in other assays of this panel Not Active means under 50% inhibition at 10 µM
Sequence (P08172 whole entry): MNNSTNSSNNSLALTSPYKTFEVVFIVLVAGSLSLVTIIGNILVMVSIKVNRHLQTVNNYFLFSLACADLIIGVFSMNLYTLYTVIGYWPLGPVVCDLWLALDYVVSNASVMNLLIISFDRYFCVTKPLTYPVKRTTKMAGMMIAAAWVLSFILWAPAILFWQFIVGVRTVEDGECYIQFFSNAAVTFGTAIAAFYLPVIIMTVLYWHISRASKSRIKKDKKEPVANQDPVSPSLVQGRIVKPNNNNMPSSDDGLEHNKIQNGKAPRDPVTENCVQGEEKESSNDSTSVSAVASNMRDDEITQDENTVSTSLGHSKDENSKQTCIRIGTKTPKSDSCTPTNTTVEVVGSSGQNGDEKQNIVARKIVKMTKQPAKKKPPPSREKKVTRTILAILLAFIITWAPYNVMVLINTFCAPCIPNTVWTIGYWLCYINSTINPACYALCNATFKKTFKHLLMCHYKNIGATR
Format: cell membranes, CHO-K1, Membrane
Conditions: read-out: Ki
MEASURED_PARAMETER: Ki (nM)

MOLECULE: CN(C)c1ccc(C(=C2C=CC(=[N+](C)C)C=C2)c2ccc(N(C)C)cc2)cc1.[Cl-] [GENTIAN VIOLET]
MEASURED_PARAMETER: Ki
UOM: nM
OBSERVED_RESULT: 508

---

experiment: DRUGMATRIX: Calcium Channel Type L, Dihydropyridine radioligand binding (ligand: [3H] Nitrendipine); assay type: cell membranes, Rattus norvegicus, Wistar, Cerebral cortex, Membrane; conditions: Not Active = under 50% inhibition at 10 µM
Where a SMILES comes first, the peptide text is derived from it. Bridges are numbered along the chain shown (N, C = ends). [ ]: non-standard residue; d: D form. The star is where a group is joined. Threoninol(2S,3R) = C[C@@H](O)[C@H](CO)N*
MEASURED_PARAMETER: Ki

COMPOUND: C[C@]12CC[C@@H]3c4ccc(O)cc4CC[C@H]3[C@@H]1CC[C@@H]2O
OBSERVED_RESULT: Not Active
--
COMPOUND: C[C@@H](O)[C@H](CO)NC(=O)[C@@H]1CSSC[C@H](NC(=O)[C@H](N)Cc2ccccc2)C(=O)N[C@@H](Cc2ccccc2)C(=O)N[C@H](Cc2c[nH]c3ccccc23)C(=O)N[C@@H](CCCCN)C(=O)N[C@@H]([C@@H](C)O)C(=O)N1 (H-[dF]CF[dW]KTC-{Threoninol(2S,3R)}; disulfide 2-7)
OBSERVED_RESULT: Not Active

---

Target: Androgen receptor (Rattus norvegicus); further: in other assays of this panel Not Active means under 50% inhibition at 10 µM
Sequence (P15207 whole entry): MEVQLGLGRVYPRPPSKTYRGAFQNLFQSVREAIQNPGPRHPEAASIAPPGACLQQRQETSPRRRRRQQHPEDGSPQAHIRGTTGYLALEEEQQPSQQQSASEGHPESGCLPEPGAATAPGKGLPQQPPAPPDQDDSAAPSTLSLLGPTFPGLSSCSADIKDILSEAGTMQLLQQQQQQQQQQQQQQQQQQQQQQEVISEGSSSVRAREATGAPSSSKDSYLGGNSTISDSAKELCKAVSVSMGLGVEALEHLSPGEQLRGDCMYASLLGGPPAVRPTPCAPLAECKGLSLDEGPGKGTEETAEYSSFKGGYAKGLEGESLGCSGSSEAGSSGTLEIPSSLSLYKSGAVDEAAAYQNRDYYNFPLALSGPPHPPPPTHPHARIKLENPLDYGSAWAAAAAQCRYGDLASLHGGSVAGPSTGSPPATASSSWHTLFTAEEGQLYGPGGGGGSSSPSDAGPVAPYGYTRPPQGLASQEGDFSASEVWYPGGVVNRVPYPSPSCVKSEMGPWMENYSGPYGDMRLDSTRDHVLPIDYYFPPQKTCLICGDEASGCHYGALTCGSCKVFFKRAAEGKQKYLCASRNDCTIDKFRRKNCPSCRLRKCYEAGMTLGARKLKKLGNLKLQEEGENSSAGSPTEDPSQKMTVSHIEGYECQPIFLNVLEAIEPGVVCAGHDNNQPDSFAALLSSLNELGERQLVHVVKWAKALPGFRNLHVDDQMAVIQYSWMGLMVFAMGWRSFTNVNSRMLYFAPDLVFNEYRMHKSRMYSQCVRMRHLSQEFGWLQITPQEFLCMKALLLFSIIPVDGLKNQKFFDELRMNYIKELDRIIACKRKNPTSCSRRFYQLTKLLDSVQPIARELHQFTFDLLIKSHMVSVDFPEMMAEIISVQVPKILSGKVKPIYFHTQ

COMPOUND: Cn1c(=O)c2c(ncn2CC2OCCO2)n(C)c1=O [DOXOFYLLINE]
IC50: Not Active
--
COMPOUND: COc1ccccc1C(=O)N1CCC(Cc2ccccc2)CC1
IC50: Not Active
--
COMPOUND: CO[C@H]1/C=C/O[C@@]2(C)Oc3c(C)c(O)c4c(c3C2=O)C2=NC3(CCN(CC(C)C)CC3)NC2=C(NC(=O)/C(C)=C\C=C\[C@H](C)[C@H](O)[C@@H](C)[C@@H](O)[C@@H](C)[C@H](OC(C)=O)[C@@H]1C)C4=O [RIFABUTIN]
IC50: Not Active
